Each entry below lists one item and its recorded composite z-score value.
Assay: binders of probe aFSTL3 on microarray, primary screen, stem cell growth factor project, biochemical, small-molecule microarray, fluorescence 635/667 (AID 1064);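 note: measures binding of the biotinylated anti-FSTL3 antibody to printed compounds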
Settings: higher = more signal
Number, no unit, nothing else.

// worked examples, composite z-score included
{"columns": ["CHEM SMILES", "composite z-score"],
 "data": [
  ["COc1ccc(O[C@H]2C=C[C@@H](c3ccccc3)O[C@@H]2CON=C2[C@H]3CCn4c(=O)n(-c5ccccc5)c(=O)n4[C@H]3[C@H](O)[C@@H]3O[C@H]23)cc1", -0.135],
  ["COC(=O)CC=C[C@@H](C)[C@@H](C=NO[C@@H]1O[C@H](COC(C)=O)[C@@H](OC(C)=O)[C@H](OC(C)=O)[C@H]1OC(C)=O)NS(=O)(=O)c1ccc(C)cc1", -0.486]
]}

Next compound, composite z-score to be filled in.
Ask | Give the measured composite z-score for CO[C@@H]1C=CCC(=O)N[C@@H](C)C(=O)OC[C@@H](OC)[C@H](C)CCCC(=O)OC[C@H]1C
Reply | -0.198

* * *

Target: Fibroblast growth factor 10 (Homo sapiens)
Test: FGF10 binders on small-molecule microarrays, primary screen, biochemical, small-molecule microarray, 635 nm fluorescence (AID 1102)
Conditions: FGF10 binding, fluorescence 635 nm, higher = more signal
ASSAY READOUT: composite z-score
No unit in the answer, only the number.

{"columns": ["COMPOUND", "TEST SYSTEM", "composite z-score"],
 "data": [
  ["C#CCCCON=C1C[C@@H](O)[C@@H](O)[C@@H]2[C@@H]3C(=O)N(c4ccc(F)cc4F)C(=O)[C@@H]3CC[C@H]12", "Fibroblast growth factor 10 (Homo sapiens)", 0.947],
  ["CCOC(=O)[C@H](CC(C)C)NC(=O)CCC1CC(OC(=O)NCCc2ccc(F)cc2)CC2(CCCC(COC(=O)NCCc3ccccc3OC)O2)O1 (some centres undefined)", "Fibroblast growth factor 10 (Homo sapiens)", 0.768],
  ["COC(=O)[C@H](C)NC(=O)CCC1CC(OC(=O)NCc2ccc3c(c2)OCO3)CC2(CCCC(COC(=O)NCc3cccc(C(F)(F)F)c3)O2)O1 (some centres undefined)", "Fibroblast growth factor 10 (Homo sapiens)", 0.818],
  ["C[C@@H](c1ccccc1)N1C(=O)[C@H]2[C@H]3[C@H](O)[C@H](O)CC(=NO[C@@H]4O[C@H](CO)[C@@H](O)[C@H](O)[C@H]4O)[C@@H]3CC[C@H]2C1=O", "Fibroblast growth factor 10 (Homo sapiens)", 0.305],
  ["CCN1C(=O)[C@H]2[C@H]3[C@H](O)[C@H](O)CC(=NNC(=O)OCc4ccc(OC)cc4)[C@@H]3CC[C@H]2C1=O", "Fibroblast growth factor 10 (Homo sapiens)", -0.0766],
  ["CCOC(=O)CCN1C(=O)[C@H]2[C@H]3[C@H](O)[C@H](O)CC(=NOCc4ccccc4)[C@H]3CC[C@H]2C1=O", "Fibroblast growth factor 10 (Homo sapiens)", -0.556]
]}

Ask | Specify the recorded composite z-score for COC(=O)[C@H]1O[C@@H](c2c(OC)c(OC)c(C)c(OC)c2OC)[C@H](C)[C@@H](O)[C@H]1C , system: Fibroblast growth factor 10 (Homo sapiens).
Reply | 0.798

Ask | Answer with composite z-score of COC(=O)CC=C[C@@H](C)[C@@H](C=NO[C@@H]1O[C@H](COC(C)=O)[C@@H](OC(C)=O)[C@H](OC(C)=O)[C@H]1OC(C)=O)OC measured for Fibroblast growth factor 10 (Homo sapiens).
Reply | -0.481

Ask | Under Fibroblast growth factor 10 (Homo sapiens): report composite z-score of CC[C@@H](c1ccccc1)n1c(=O)n2n(c1=O)[C@H]1[C@H](O)[C@@H]3O[C@@H]3C(=NOC[C@@H](O)COCc3ccco3)[C@H]1CC2 .
Reply | 0.145

Ask | System Fibroblast growth factor 10 (Homo sapiens). Read-out composite z-score. Item O=c1n(-c2ccccc2)c(=O)n2n1CC[C@@H]1C(=NOCc3ccccc3)[C@H]3O[C@H]3[C@@H](O)[C@@H]12 . Report value.
Reply | 0.334

Ask | Fill in: composite z-score on Fibroblast growth factor 10 (Homo sapiens), entry CCOC(=O)CCN1C(=O)[C@H]2[C@H]3[C@H](O)[C@H](O)CC(=NOCC(C)C)[C@H]3CC[C@H]2C1=O
Reply | -0.147

Ask | Send back Fibroblast growth factor 10 (Homo sapiens) composite z-score of CCOC(=O)[C@H](CC(C)C)NC(=O)CCC1CC(OC(=O)NCc2ccc3c(c2)OCO3)CC2(CCCC(COC(=O)NCC(c3ccccc3)c3ccccc3)O2)O1 (some centres undefined) only.
Reply | 0.685

Ask | Fill: composite z-score (Fibroblast growth factor 10 (Homo sapiens)) for this compound CCOC(=O)[C@H](CC(C)C)NC(=O)CCC1CC(OC(=O)NCCc2ccc(F)cc2)CC2(CCCC(COC(=O)NCCc3ccc(Cl)cc3)O2)O1 (some centres undefined)
Reply | 0.675

Ask | Lab note: record composite z-score of C[C@@H](c1ccccc1)N1C(=O)[C@H]2[C@H]3[C@H](O)[C@H](O)CC(=O)[C@H]3CC[C@H]2C1=O tested on Fibroblast growth factor 10 (Homo sapiens).
Reply | 0.526

* * *

Test: binders from COS7 lysate, DM2A8 probe, primary screen, torsin A project, cell lysate, small-molecule microarray, fluorescence 635/667 (AID 1065)
Conditions: higher = more signal, COS7 lysate expressing mutant human TOR1A
Categories are assigned from the measured composite z-score using these intervals: low bracket = under 0.2, middle bracket = from 0.2 up to 0.7, high bracket = 0.7 and over

{"columns": ["COMPOUND", "LABEL"],
 "data": [
  ["CCOC(=O)[C@H](Cc1ccccc1)NC(=O)CCC1CC(OC(=O)NCCc2ccc(F)cc2)CC2(CCCC(COC(=O)NCCCN3CCCC3=O)O2)O1 (stereo partly specified)", "middle bracket"],
  ["CO[C@@H]1COC(=O)CC=C[C@@H](C)[C@H](OC)COC(=O)[C@@H](C)COC(=O)CC=C[C@H]1C", "high bracket"],
  ["C[C@H]1COC(=O)[C@@H]2CCCN2C(=O)[C@@H](C)COC(=O)[C@H](Cc2ccccc2)NC1=O", "low bracket"]
]}

Ask | Band for the recorded composite z-score of CCOC(=O)CCN1C(=O)[C@H]2[C@H]3[C@H](O)[C@H](O)CC(=NOCC(C)C)[C@H]3CC[C@H]2C1=O ?
Reply | low bracket

Ask | Exam item: assign CCOC(=O)C1=NO[C@]2(C=C(Br)C3(OCCCO3)[C@H]3O[C@H]32)C1 to the correct category.
Reply | high bracket

Ask | Class? Entry: COC(=O)C1=C(C)N(Cc2ccccc2)[C@]23O[C@](C(=O)OC)(C(=O)N2[C@@H]1c1ccccc1)C(C(=O)OC)=C3C(=O)OC
Reply | middle bracket

Ask | Lab note: which band did CCOC(=O)NN=C1C[C@@H](O)[C@@H](O)[C@@H]2[C@@H]3C(=O)N([C@@H](C)c4ccccc4)C(=O)[C@@H]3CC[C@@H]12 land in?
Reply | high bracket

Ask | Using the reported composite z-score, which band applies to COc1ccc(O[C@H]2C=C[C@@H](c3ccccc3)O[C@@H]2COC(=O)CCC(C)=NOC[C@@H](O)[C@H]2O[C@@H]3OC(C)(C)O[C@@H]3[C@H]2O)cc1 ?
Reply | middle bracket

Ask | Hey, which category is COC(=O)CC=C[C@@H](C)[C@@H](C=NOC(C)CN1CCCc2nc(C)c(C)cc21)OC (stereo partly specified) in, do you know?
Reply | middle bracket

Ask | Class label required: CO[C@H]1COC(=O)[C@H](C)NC(=O)CC=C[C@@H](C)[C@H](OC)COC(=O)[C@@H](OCc2ccccc2)C=C[C@@H]1C
Reply | high bracket

Ask | State the band of CON=C[C@@H](C)[C@H](OCc1ccccc1)C(C)C
Reply | low bracket

Ask | Band for the recorded composite z-score of CCO[C@H](c1cc(OC)cc([N+](=O)[O-])c1OC)[C@H](C)C=CCC(=O)OC ?
Reply | low bracket

Ask | Assign a bin to COC(=O)CC=C[C@@H](C)[C@@H](C=NOC[C@@H](O)[C@H]1O[C@@H]2OC(C)(C)O[C@@H]2[C@H]1O)NS(=O)(=O)c1ccc(C)cc1
Reply | high bracket

Ask | Looking at CC(CCN1CCCc2nc(C)c(C)cc21)=NO[C@@H](C)c1cc(-c2c(C)cc(C)cc2C)no1 , which class would you pick?
Reply | low bracket

* * *

z-score listing for selected molecules.
Test: basal HepG2 mitochondrial membrane potential changes, profiling panel, cell-based, JC-1 fluorescence, 24 h, 100 nL compound (AID 1167); note: test concentration not given here
Conditions: higher = more signal
Just the number, please, no unit after it.

{"columns": ["MOLECULE", "z-score"],
 "data": [
  ["CC(=O)OC[C@H]1OC(ON=CC[C@@H]2C=C[C@H](OC(C)=O)[C@@H](COC(C)=O)O2)[C@H](OC(C)=O)[C@@H](OC(C)=O)[C@@H]1OC(C)=O (some centres not stated)", 0.0783],
  ["CON=CC[C@@H]1C=C[C@H](OC(C)=O)[C@@H](COC(C)=O)O1", 0.308],
  ["CCc1cc2c(nc1CC)CCN(CCC(C)=NO[C@@H](C)c1cn([C@H](CO)Cc3ccccc3)nn1)C2", 2.44],
  ["O=C(NN=C1C[C@@H](O)[C@@H](O)[C@@H]2[C@@H]3C(=O)N(C4CCCCC4)C(=O)[C@@H]3CC[C@@H]12)OCc1ccccc1", -0.502],
  ["O=C(NN=C1C[C@@H](O)[C@@H](O)[C@@H]2[C@@H]3C(=O)N(C4CCCCC4)C(=O)[C@@H]3CC[C@H]12)OCc1ccccc1", -1.14],
  ["COc1ccc(C#C[C@@H]2C=C[C@H](OC(C)=O)[C@@H](COC(C)=O)O2)cc1", -1.52]
]}

We now examine a further molecule.
Ask | Identify measured z-score associated with CCN1C(=O)[C@@H]2[C@H]3C(=CC[C@@H]2C1=O)C1(OCCCO1)[C@H]1O[C@H]1[C@H]3O
Reply | -3.62
